Target entity: T1, IL-2Rα-Fc fusion protein (human, UniProt P01589 22-240)
T1 construct: also called human IL-2Rα (CD25); CD25; not shown: Fc part and any linker are not described; captured on an anti-human IgG Fc sensor
T1 sequence: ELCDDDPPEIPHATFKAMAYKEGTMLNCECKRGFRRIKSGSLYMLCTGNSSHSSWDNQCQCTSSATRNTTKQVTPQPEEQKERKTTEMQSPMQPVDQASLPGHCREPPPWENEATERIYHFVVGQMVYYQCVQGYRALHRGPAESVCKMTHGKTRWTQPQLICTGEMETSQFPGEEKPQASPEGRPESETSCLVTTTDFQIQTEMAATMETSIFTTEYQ
Method description: BLI (Octet RED96), IL-2Rα-Fc on AHC biosensor

Binder	binding result
hIL-2-anti-HSA A38 (ligand, fused to anti-HSA VHH; also called IL2 mutein (K32E, R38A, F42A, C125S)) APTSSSTKKTQLQLEHLLLDLQMILNGINNYENPKLTAMLTAKFYMPKKATELKHLQCLEEELKPLEEVLNLAQSKNFHLRPRDLISNINVIVLELKGSETTFMCEYADETATIVEFLNRWITFSQSIISTLTGSGGSGGSGGSGEVQLVESGGGLVQPGGSLRLSCAASGSTWSINTLAWYRQAPGKQRDLVARISSGGSTYYADSVKGRFTISRDNSKNTLYLQMNSLRAEDTAVYYCYAQSTWYPPSWGQGTLVTVSS	no binding
hIL-2-anti-HSA A48 (ligand, fused to anti-HSA VHH; also called hIL-2 mutein (K32E, R38C, L72C, C125S)) APTSSSTKKTQLQLEHLLLDLQMILNGINNYENPKLTCMLTFKFYMPKKATELKHLQCLEEELKPLEEVLNCAQSKNFHLRPRDLISNINVIVLELKGSETTFMCEYADETATIVEFLNRWITFSQSIISTLTGSGGSGGSGGSGEVQLVESGGGLVQPGGSLRLSCAASGSTWSINTLAWYRQAPGKQRDLVARISSGGSTYYADSVKGRFTISRDNSKNTLYLQMNSLRAEDTAVYYCYAQSTWYPPSWGQGTLVTVSS	no binding
hIL-2-anti-HSA A49 (ligand, fused to anti-HSA VHH; also called hIL-2 mutein (K32E, F42C, V69C, C125S); IL-2 with an additional disulfide bond) APTSSSTKKTQLQLEHLLLDLQMILNGINNYENPKLTRMLTCKFYMPKKATELKHLQCLEEELKPLEECLNLAQSKNFHLRPRDLISNINVIVLELKGSETTFMCEYADETATIVEFLNRWITFSQSIISTLTGSGGSGGSGGSGEVQLVESGGGLVQPGGSLRLSCAASGSTWSINTLAWYRQAPGKQRDLVARISSGGSTYYADSVKGRFTISRDNSKNTLYLQMNSLRAEDTAVYYCYAQSTWYPPSWGQGTLVTVSS	no binding
